Below, each of the molecules is paired with its reported drug sensitivity score value.
# Test system: HepG2
# procedureText: drug sensitivity score (DSS) for viability; higher = more toxic; extreme values may be limits of the assay
# conditionSet: 72 h
Note: the reply should be a number with no unit written.

# molecule, drug sensitivity score
records = [
    ("Cc1nc2c(c(=O)[nH]1)CSCC2", 0),
    ("CN(C)c1nc(N(C)C)nc(N(C)C)n1", 0),
    ("Cc1onc(O)c1C[C@@H](N)C(=O)O (racemic) [AMPA-(RS)]", 0),
]

Entry Oc1ccc(Cl)cc1Cc1cc(Cl)ccc1O under HepG2 had drug sensitivity score of 1.1

Entry Cc1ccc(C(=O)Nc2ccc(CN3CCN(C)CC3)c(C(F)(F)F)c2)cc1C#Cc1cnc2[nH]ncc2c1 under HepG2 had drug sensitivity score of 17.2

Entry C=C(C)[C@@H]1CC[C@]2(C(=O)O)CC[C@]3(C)[C@H](CC[C@@H]4[C@@]5(C)CC[C@H](O)C(C)(C)[C@@H]5CC[C@]43C)[C@@H]12 under HepG2 had drug sensitivity score of 0

Entry CS(=O)(=O)N1CCc2c(-c3cnc(N)nc3)nc(N3CCOCC3)nc21 under HepG2 had drug sensitivity score of 6.9

Entry CC(C)(C)NC(=O)[C@@H]1C[C@@H]2CCCC[C@@H]2CN1C[C@@H](O)[C@H](Cc1ccccc1)NC(=O)[C@H](CC(N)=O)NC(=O)c1ccc2ccccc2n1 under HepG2 had drug sensitivity score of 1

Entry COc1cc2c(cc1OC)[C@@H](Cc1cc(OC)c(OC)c(OC)c1)[N+](C)(CCCOC(=O)CC/C=C/CCC(=O)OCCC[N+]1(C)CCc3cc(OC)c(OC)cc3[C@H]1Cc1cc(OC)c(OC)c(OC)c1)CC2 (stereo partly drawn) under HepG2 had drug sensitivity score of 0

Entry C[C@H]1CNCCCN1S(=O)(=O)c1cccc2cncc(F)c12 under HepG2 had drug sensitivity score of 0.3

Entry COc1ccc(-c2cc(C(F)F)nn2-c2ccc(S(N)(=O)=O)cc2)cc1F under HepG2 had drug sensitivity score of 1.5

Entry COCc1c(-c2ccc(NC(=O)Nc3cc(C(F)(F)F)ccc3F)c(F)c2)c2c(N)ncnn2c1CN1CCOCC1 under HepG2 had drug sensitivity score of 16.2

Entry CC(C)(O)[C@@H]1[C@H]2OC(=O)[C@@H]1[C@]1(O)C[C@H]3O[C@]34C(=O)O[C@H]2[C@]14C under HepG2 had drug sensitivity score of 0

Entry CNCc1cc(-c2ccccc2F)n(S(=O)(=O)c2cccnc2)c1 under HepG2 had drug sensitivity score of 0

Entry CCOc1ccc(NC(C)=O)cc1 under HepG2 had drug sensitivity score of 0

Entry Nc1nc(-c2ccc(Cl)c(Cl)c2)c(-c2ccncc2)s1 under HepG2 had drug sensitivity score of 0

Entry Sc1ncnc2nc[nH]c12 under HepG2 had drug sensitivity score of 8.7

Entry O=C(COc1ccc(Cl)cc1)N[C@H]1CC[C@H](NC(=O)COc2ccc(Cl)cc2)CC1 under HepG2 had drug sensitivity score of 0

Entry N#C/C(=C\c1ccc(O)c(O)c1)C(=O)NCCCc1ccccc1 under HepG2 had drug sensitivity score of 1.7

Entry O=C(CSc1nc2c(c(=O)n1-c1ccccc1)SCC2)Nc1ccc(-c2ccccc2)cn1 under HepG2 had drug sensitivity score of 0
